Tested on: HEK-293T
PROTOCOL_SUMMARY: Multiplex assay against HEK293T
Type: toxicity, cell-based
TEST_SETTINGS: human, 24 h, 10 µM, compound concentration 10 uM, number of replicates 2
MEASUREMENT_TYPE: Population Pyknosed Nuclei (%)
State the value with its unit after it.

Here's what some known entries look like.
CCCCOc1c(C(=O)c2c(F)cc(C)cc2F)c[nH]c2nncc1-2 = 11%
CS(=O)(=O)c1ccc(NC(=O)c2cccc(COc3ccc(Br)cc3CNCCO)c2)c(Cl)c1.O=CO = 16%
COc1ccc(NC(=O)c2ccc(-c3ccc(-c4noc(C)n4)cc3C)cc2)cc1OCCN(C)C.Cl = 60%
Cc1c(C(=O)Nc2ccc(N3C[C@@H](C)O[C@@H](C)C3)nc2)cccc1-c1ccc(OC(F)(F)F)cc1 [SONIDEGIB] = 9%

Next item in the queue.
Input: Quickly give me recorded Population Pyknosed Nuclei (%) for NCC1CCC(CNc2nc(NCc3ccccc3OC(F)(F)F)ncc2[N+](=O)[O-])CC1 (stereo not given)
Output: 15%

###

Recorded Population Apoptotic (%) values for a group of compounds are listed next.
Tested on: U2OS
PROTOCOL_SUMMARY: Multiplex assay against U2OS
Assay type: toxicity, cell-based
TEST_SETTINGS: human, 24 h, 10 µM, compound concentration 10 uM, number of replicates 2

CS(=O)(=O)c1ccc(NC(=O)c2cccc(COc3ccc(Br)cc3CNCCO)c2)c(Cl)c1.O=CO = 77%

Input: Specify reported Population Apoptotic (%) for the compound shown: CS(=O)(=O)c1ccc(C(=O)Nc2cccc(COc3ccc(Br)cc3CN3CCC[C@H](O)C3)c2)c(Cl)c1.O=CO
Output: 90%

Input: Answer with the recorded Population Apoptotic (%) for the compound listed here: Cc1ccc(C(=O)Nc2cc(N3CCN(C)CC3)cc(C(F)(F)F)c2)cc1-n1cc(-c2cnn(C)c2C)nn1.Cl
Output: 85%

Input: State its Population Apoptotic (%) for this compound: COCCNC1CCC(Nc2cc(-c3csc(NCC4(C#N)CCOCC4)n3)c(Cl)cn2)CC1 (stereo not given)
Output: 91%

Input: Look up Population Apoptotic (%) of C[C@@H]1CC[C@@]2(OC1)O[C@H]1[C@@H](O)[C@H]3[C@@H]4CC[C@H]5C[C@@H](O[C@@H]6O[C@H](CO)[C@H](O[C@@H]7O[C@H](CO)C(O)[C@H](O[C@@H]8OC[C@@H](O)[C@H](O)[C@H]8O)[C@H]7O[C@@H]7O[C@H](CO)[C@H](O)[C@H](O[C@@H]8O[C@H](CO)[C@@H](O)[C@H](O)[C@H]8O)[C@H]7O)[C@H](O)[C@H]6O)[C@H](O)C[C@]5(C)[C@H]4CC[C@]3(C)[C@H]1[C@@H]2C (stereo not given in full) and report it.
Output: 58% [middle of 4 runs]

###

Quick reference: Population Normal (%) of the listed items.
Tested on: Fibroblast
PROTOCOL_SUMMARY: Multiplex assay against human fibroblast
Assay type: toxicity, cell-based
TEST_SETTINGS: 24 h, 10 µM, compound concentration 10 uM, number of replicates 2
The figure you give is taken to be in %; do not add the unit.

Before answering, review these 2 worked examples.
CN1CCN(c2ccc(-n3cc(-c4ccncc4OCC4CCNCC4)cn3)cc2)CC1 = 100
CC(C)S(=O)(=O)c1ccccc1Nc1nc(N[C@@H]2CCCN(CCCCCCCNC(=O)COc3cccc4c3C(=O)N(C3CCC(=O)N(C)C3=O)C4=O)C2)ncc1Cl (some centres undefined) = 99

Input: Look up and state reported Population Normal (%) for CCn1c(-c2nonc2N)nc2cncc(C(=O)N3CC[C@H](N)C3)c21.Cl
Output: 100

Input: Answer with the recorded Population Normal (%) for the compound listed here: CCCN(CCc1cccs1)[C@H]1CCc2c(O)cccc2C1 [ROTIGOTINE]
Output: 100

Input: // fetch Population Normal (%) given entry CS(=O)(=O)c1ccc(C(=O)Nc2cccc(COc3ccc(Br)cc3CN3CC[C@H](O)C3)c2)cc1.O=CO
Output: 99

Input: Tell me Population Normal (%) reported for CN1CCc2cc(Cl)c(O)cc2[C@@H](c2ccccc2)C1.Cl
Output: 100

Input: Please supply the value of reported Population Normal (%) for the item COc1ccc(NC(=O)c2ccc(-c3ccc(-c4noc(C)n4)cc3C)cc2)cc1OCCN(C)C.Cl
Output: 100
